Ref: PubChem BioAssay

- Assayed target: Short transient receptor potential channel 4 (Mus musculus) (UniProt Q9QUQ5)
- Sequence (Q9QUQ5 whole entry, looked up): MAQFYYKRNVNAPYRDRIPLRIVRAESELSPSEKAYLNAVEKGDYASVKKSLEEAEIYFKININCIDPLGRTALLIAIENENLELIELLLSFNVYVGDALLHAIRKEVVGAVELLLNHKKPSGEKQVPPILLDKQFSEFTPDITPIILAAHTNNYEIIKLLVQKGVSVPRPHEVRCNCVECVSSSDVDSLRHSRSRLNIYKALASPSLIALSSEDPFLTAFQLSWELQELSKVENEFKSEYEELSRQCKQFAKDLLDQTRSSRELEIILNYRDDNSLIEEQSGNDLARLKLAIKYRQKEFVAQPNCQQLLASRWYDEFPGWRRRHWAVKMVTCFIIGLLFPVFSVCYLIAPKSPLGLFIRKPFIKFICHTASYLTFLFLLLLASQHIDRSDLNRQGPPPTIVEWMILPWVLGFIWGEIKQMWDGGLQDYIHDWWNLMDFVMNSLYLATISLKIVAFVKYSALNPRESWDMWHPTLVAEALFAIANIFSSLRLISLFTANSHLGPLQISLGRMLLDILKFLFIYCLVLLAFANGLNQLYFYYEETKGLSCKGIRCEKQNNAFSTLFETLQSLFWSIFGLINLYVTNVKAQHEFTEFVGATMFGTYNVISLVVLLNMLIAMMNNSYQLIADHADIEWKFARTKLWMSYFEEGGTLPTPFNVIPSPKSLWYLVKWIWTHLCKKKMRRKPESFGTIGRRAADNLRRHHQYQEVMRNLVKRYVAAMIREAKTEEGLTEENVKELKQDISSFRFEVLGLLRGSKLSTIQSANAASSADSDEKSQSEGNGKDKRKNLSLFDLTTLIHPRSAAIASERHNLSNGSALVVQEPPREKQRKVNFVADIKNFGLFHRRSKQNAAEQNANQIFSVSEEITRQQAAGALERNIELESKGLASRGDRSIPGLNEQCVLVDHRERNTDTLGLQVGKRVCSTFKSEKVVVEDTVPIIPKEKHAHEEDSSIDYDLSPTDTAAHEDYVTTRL
- Experimental protocol: blockers of DAMGO-evoked TRPC4 calcium flux – cell-based, second round, Fluo4, HEK293 TRPC4beta/mu-opioid, 1 µM, confirmation (AID 2637);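 as to inhibition: percent of integrated ratio relative to wells lacking test compound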
- Condition info: at 1 µM; stronger effect = higher value
Calls of active or inactive are those of the source.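 The calls were made as follows: active = calcium signal ratio cut to more than 3 SD under the fully stimulated control mean yet still positive, in both repeats and the primary screen; inactive = the rest.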

{"Compound": "COc1ccc(NC(=O)c2c[nH]n3c(=O)cc(C4CCN(C(=O)OC(C)(C)C)CC4)nc23)cc1Cl", "inhibition": "41% (active)"}
{"Compound": "CC(C)(C)NCc1ccccc1OCc1cccs1", "inhibition": "45% (active)"}
{"Compound": "O=C(NC(=S)NNC(=O)c1cccs1)c1ccc(Br)o1", "inhibition": "inactive"}
{"Compound": "CCC(O)C1CCN(Cc2cn(-c3ccc(OC)cc3)nc2-c2cccc(F)c2)CC1 (stereo not drawn)", "inhibition": "inactive"}
{"Compound": "CCOc1ccccc1CN1CCN(Cc2cccc3nonc23)CC1CCO (stereo not drawn)", "inhibition": "inactive"}
{"Compound": "Cc1cc(Nc2ccc3c(c2)OCCO3)c2cccc(C)c2n1", "inhibition": "inactive"}
{"Compound": "COc1ccc(CN2CCN(C(=O)c3ccc(F)cc3)CC2)c(OC)c1", "inhibition": "57% (active)"}
{"Compound": "CCn1c(N2CCN(S(=O)(=O)CC)CC2)nc2ccccc21", "inhibition": "inactive"}
{"Compound": "COc1ccc(Cl)cc1C(=O)NCCN(C)C", "inhibition": "inactive"}
{"Compound": "COc1ccc(-c2nn(-c3ccccc3C)cc2CNCc2cccnc2)cc1F", "inhibition": "inactive"}
{"Compound": "COc1cccc(C(=O)C2CCCN(Cc3cccn3-c3ccccn3)C2)c1 (stereo not drawn)", "inhibition": "inactive"}
{"Compound": "Cc1ccc(N(C(=O)c2snc(C(N)=O)c2N)C(C(=O)NCC2CCCO2)c2ccc(C)o2)c(C)c1 (stereo not drawn)", "inhibition": "inactive"}
{"Compound": "C=C(c1ccc(O)cc1)c1ccc(O)cc1", "inhibition": "47% (active)"}
{"Compound": "CN1C(CC(=O)Nc2ccc(Br)cc2)c2ccccc2CC1(C)C (stereo not drawn)", "inhibition": "inactive"}
{"Compound": "O/N=C/c1ccccc1Oc1ccc(Cl)cc1", "inhibition": "inactive"}
{"Compound": "Cc1cccc(OCCn2c(=O)sc3ccccc32)c1", "inhibition": "inactive"}
{"Compound": "Cc1cc(C)cc(NC(=S)N2CCN(c3ncc(C(F)(F)F)cc3Cl)CC2)c1", "inhibition": "inactive"}
{"Compound": "CCCn1c(=O)c(C(=O)NCC2CCCO2)c(O)c2ccccc21 (stereo not drawn)", "inhibition": "inactive"}
{"Compound": "CCOCc1cn(CC(=O)c2ccc(Cl)cc2)c(C)nc1=N", "inhibition": "72% (active)"}
{"Compound": "CCCN(CCC)CCCNC(=O)c1cc2c(-c3ccc(OC)c(OC)c3)nn(C)c2s1", "inhibition": "inactive"}
{"Compound": "NC(N)=NN=C1CCCCCCCCCCC1", "inhibition": "inactive"}
{"Compound": "C=CCn1c(SCCN2CCOCC2)nc2c1c(=O)[nH]c(=O)n2C", "inhibition": "inactive"}
{"Compound": "N#Cc1c(NC(=O)C2CC(Cl)=CCC2C(=O)O)sc2c1CCCCC2 (stereo not drawn)", "inhibition": "inactive"}

###

- Tested on: TRPC4 beta (transient receptor potential cation channel C4), mouse
- Experimental protocol: potentiation of DAMGO EC20 TRPC4 response – cell-based, Fluo-4, HEK293 TRPC4beta/mu-opioid, confirmation (AID 2555)
- Condition info: DAMGO EC20, Fluo-4 calcium flux, at 10 µM
Active and inactive are the calls of the source.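 How the source made its calls: active means primary screen hit whose calcium fluorescence ratio, in both repeats, exceeds the weak agonist control mean by 3 SD; inactive means the rest.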
Outcome codes: YES for active, NO for inactive

{"Molecule": "Brc1ccc(CN2C3=NCCCN3c3ccccc32)cc1", "Class name": "NO"}
{"Molecule": "Cc1cc(C(C)(C)C)c(O)c(C)c1CC1=NCCN1", "Class name": "YES"}
{"Molecule": "CCN1CCN(c2nc(N)c([N+](=O)[O-])c(Nc3ccc(C)cc3)n2)CC1", "Class name": "YES"}
{"Molecule": "CCOc1cc(S(=O)(=O)N2CCN(C(=O)c3ccco3)CC2)ccc1F", "Class name": "YES"}
{"Molecule": "O=C(O)c1ccc(N2CCN(C(c3ccccc3)c3ccccc3)CC2)c([N+](=O)[O-])c1", "Class name": "NO"}
{"Molecule": "CCCN1Cc2cccc(C(=O)N3CCN(c4cc(Cl)ccc4C)CC3)c2C1=O", "Class name": "YES"}
{"Molecule": "Cc1nc2scc(-c3ccccc3)c2c(=O)n1N=C1C=CC(=O)C=C1", "Class name": "NO"}
{"Molecule": "COc1ccc(Br)cc1CN1CCC(N2CCCC2)CC1", "Class name": "NO"}
{"Molecule": "Clc1ccc2c(c1)-c1nnc(Br)n1-c1ccccc1S2", "Class name": "NO"}
{"Molecule": "CN(C)c1ccc(C(=S)N2CCN(c3ccc([N+](=O)[O-])cc3)CC2)cc1", "Class name": "NO"}
{"Molecule": "Cc1ccc(NC(=O)C2CCC(CNC(=O)[C@@H]3Cc4ccccc4CN3)CC2)cc1 (some centres undefined)", "Class name": "NO"}
{"Molecule": "c1ccc(Cc2nc3ccccc3n2Cc2ccccc2)cc1", "Class name": "NO"}
{"Molecule": "CN(C)CCCNc1nc(N)c([N+](=O)[O-])c(NCc2ccccc2)n1", "Class name": "NO"}
{"Molecule": "C=CCn1c(SCCN2CCCC2)nc2c([nH]c3ccccc32)c1=O", "Class name": "NO"}
{"Molecule": "Cc1noc(C)c1COC(=O)[C@@H](NC(=O)c1ccccc1Cl)C(C)C", "Class name": "NO"}
{"Molecule": "O=C(NCC(c1cccs1)N1CCOCC1)c1ccc(Cl)c([N+](=O)[O-])c1 (centres undefined)", "Class name": "NO"}
{"Molecule": "O=C1CN=C(Nc2cccc(C(F)(F)F)c2)N1C1CCCC1", "Class name": "NO"}
{"Molecule": "Nc1cc(N2CCCCC2)c([N+](=O)[O-])cc1Cl", "Class name": "NO"}
{"Molecule": "Cc1cc2cc(CN(Cc3cccs3)C(=S)NCc3ccco3)c(=O)[nH]c2cc1C", "Class name": "NO"}
{"Molecule": "Cc1[nH]nc(Nc2ccccc2)c1[N+](=O)[O-]", "Class name": "NO"}
{"Molecule": "O=C(C[n+]1cc(-c2ccc(Br)cc2)n2c1CCCCC2)c1ccccc1", "Class name": "NO"}
{"Molecule": "Cc1ccccc1N(C(=O)c1snc(C(N)=O)c1N)C(C(=O)NC1CCCC1)c1ccco1 (centres undefined)", "Class name": "NO"}
{"Molecule": "CCCn1c(NC(=O)c2cccc(S(=O)(=O)N3CCCC3)c2)nc2ccccc21", "Class name": "YES"}
{"Molecule": "CCn1c2ccccc2c2cc(/C=N/NC(=O)c3cc(O)cc(O)c3)ccc21", "Class name": "NO"}
{"Molecule": "Clc1cc(/C=N\\NC2=NCCN2)cc(Cl)n1", "Class name": "NO"}
{"Molecule": "CCn1c(NCc2c[nH]c3ccccc23)nc2ccccc21", "Class name": "NO"}
{"Molecule": "Brc1ccccc1CN1CCN(Cc2c[nH]c3ccccc23)CC1", "Class name": "NO"}
{"Molecule": "CC(/C=C1\\SC(=S)N(C(C(=O)O)C(C)C)C1=O)=C\\c1ccccc1 (centres undefined)", "Class name": "NO"}
{"Molecule": "CCCCN(C(=O)c1cccc2c(=O)c(C)c(-c3ccccc3)oc12)c1ccccc1", "Class name": "YES"}
{"Molecule": "COc1ccc(F)cc1C(=O)C1CCCN(Cc2ccc3c(c2)OCCO3)C1 (centres undefined)", "Class name": "NO"}
{"Molecule": "Cc1c(N2C(=O)/C(=C/c3ccccc3)SC2=S)c(=O)n(-c2ccccc2)n1C", "Class name": "NO"}
{"Molecule": "CCc1ccc2nc(N=C(N)N)nc(C)c2c1", "Class name": "NO"}
{"Molecule": "CC1(C)CC2CC(C)(CN2C(=O)c2cc(-c3ccc(O)cc3)on2)C1 (centres undefined)", "Class name": "NO"}
{"Molecule": "CCN1CCCC1CNS(=O)(=O)c1c(C)cc(C)cc1C (centres undefined)", "Class name": "NO"}
{"Molecule": "COc1ccc(OC)c(Nc2cc(-c3ccccc3)nc(N)n2)c1", "Class name": "NO"}
{"Molecule": "O=C1CCSc2ccc(Cl)cc2N1Cc1ccc(Cl)cc1", "Class name": "NO"}
{"Molecule": "CCOc1ccc2nc(NCCNC(=O)C3CC3)c(C)cc2c1", "Class name": "NO"}
{"Molecule": "CCn1c(N2CCN(C(=S)NCCc3ccccc3)CC2)nc2ccccc21", "Class name": "NO"}
{"Molecule": "CCOC(=O)CSc1nc2ccccc2c(=O)n1CC1CCCC1", "Class name": "NO"}
{"Molecule": "Fc1ccc(-n2cc(CNCCc3cccnc3)c(-c3ccccc3Cl)n2)cc1", "Class name": "NO"}
{"Molecule": "CNCC(=O)N1CCN(c2ncc(C(F)(F)F)cc2Cl)CC1", "Class name": "NO"}
{"Molecule": "Cc1cc2oc(C(=O)N(Cc3ccccc3)C3CCS(=O)(=O)C3)cc(=O)c2cc1Cl (centres undefined)", "Class name": "YES"}
{"Molecule": "CCOC(=O)C1=C(CNCCc2ccc(Cl)cc2)NC(=O)NC1c1cccc([N+](=O)[O-])c1 (centres undefined)", "Class name": "NO"}
{"Molecule": "CC(=O)Nc1nc(-c2ccc3c(c2)CCN3C(=O)C2CC2)c(C)s1", "Class name": "NO"}
